# target.entity: T1, His-KDM4A_(1–359)-Bio (human, UniProt O75164 1-359, biotin on the AviTag (>95% biotinylation))
# T1 chain: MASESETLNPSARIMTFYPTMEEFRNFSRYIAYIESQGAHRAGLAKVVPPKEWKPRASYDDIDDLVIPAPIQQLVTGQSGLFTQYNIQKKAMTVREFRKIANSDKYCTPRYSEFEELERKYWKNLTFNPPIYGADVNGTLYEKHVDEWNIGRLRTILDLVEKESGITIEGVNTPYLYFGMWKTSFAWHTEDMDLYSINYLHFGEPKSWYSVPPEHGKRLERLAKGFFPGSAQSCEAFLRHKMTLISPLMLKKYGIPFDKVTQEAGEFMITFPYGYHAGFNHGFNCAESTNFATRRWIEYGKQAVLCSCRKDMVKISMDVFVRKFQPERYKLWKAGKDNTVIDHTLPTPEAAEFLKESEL
# assay.name: BLI
recorded.endpoint: pKd
In textbook form, pKd equals minus log to base ten of the concentration in mol/L.

Sure, the documented pKd for ARTKQTARKSTGGKA (trimethyl-lysine at 9) [H3(1–15)K9me3] is 3.96
